src = PubChem BioAssay (NCI)

We begin with a simple list: items and their reported TGI.
- Tested on: MALME-3M melanoma
- Assay: NCI tumour cell line growth inhibition, 48 h

# Compound, TGI
measured = [
    ("O=c1[nH]n(Cc2ccccn2)c2ccc([N+](=O)[O-])cc12", "> 100 µM"),
    ("O=C1/C(=C/c2ccco2)N=C(c2ccccc2)N1c1cc2cc(Sc3ccccc3)ccc2[nH]1", "> 25 µM"),
    ("O=C(/C=C/c1ccc(O)c(O)c1O)OCCc1ccccc1", "> 100 µM"),
    ("O=C1OCc2cccc3c2-c2c1cccc2C(=O)OC3", "> 100 µM"),
    ("C=C1CN(Cc2ccccc2)[C@@H]2CCCCC[C@H](C#N)[C@H]12", "> 100 µM"),
    ("O=C(c1ccccc1)c1sc2c(=O)c(C(=O)c3ccccc3)c(C(=O)c3ccccc3)sc2c(=O)c1C(=O)c1ccccc1", "> 100 µM"),
    ("O=C1c2scc(-c3ccc(Cl)cc3)c2-n2cccc21", "> 100 µM"),
    ("CC(=O)OC1CC[C@]2(C)C3CC[C@@]4(C)C(CCC4[C@H](C)CCCC(C)C)[C@@H]3CCC2(Br)C1 (stereo partly specified)", "23.2 µM"),
    ("CC1(C)CC(=O)c2c(nc(SSc3nc4c(c(-c5ccccc5)c3C#N)C(=O)CC(C)(C)C4)c(C#N)c2-c2ccccc2)C1", "> 10 µM"),
    ("O=c1cc(-c2ccccc2)oc2cc(OCCSCCCCCCCCCCSCCOc3ccc4c(=O)cc(-c5ccccc5)oc4c3)ccc12", "> 100 µM"),
    ("COc1cc2c(cc1OCc1ccccc1)NC(=S)[C@@H]1CCCN1C2=S", "> 100 µM"),
]

---

- Test system: SF-268 CNS
- Assay: NCI tumour cell line growth inhibition, 48 h; in the data active means GI50 below about 0.43 µM; inactive means the rest
Outcome codes: active, inactive

# Compound, Label
measured = [
    ("O=C1c2c(O)cc(O)cc2OC(c2ccc(O)cc2O)C1O (stereo unspecified)", "inactive"),
    ("COc1ccc(-c2cc(-c3cc(OC)c(OC)c(OC)c3)c(C#N)c(N3CCOCC3)n2)cc1O", "inactive"),
    ("COc1ccc(-c2c(-c3cc(OC)c4c(c3)OCO4)noc2N)cc1", "active"),
    ("Nc1c(C(=O)Nc2ccccc2F)sc2nc3c(cc12)C(=O)CCC3", "inactive"),
    ("N#Cc1ccc(C(c2ccc(C#N)cc2)n2cncn2)cc1", "inactive"),
    ("O=C(c1ccccc1)c1nc2ccc(C(F)(F)F)cc2[n+]([O-])c1C(F)(F)F", "inactive"),
    ("O=C(Oc1ccccc1Cl)c1ccccc1Nc1ccnc(C(F)(F)F)c1", "inactive"),
    ("CCOC(=O)c1cc2c(n1Cc1ccccc1)-c1oncc1CC2", "inactive"),
    ("C#CCOc1cccc(Nc2ncnc3ccc(NC(=O)CCl)cc23)c1", "inactive"),
    ("CCOC(=O)Nc1ccc(-c2nc(-c3cccc(OC)c3)c(-c3ccnc(Br)c3)[nH]2)cc1", "inactive"),
    ("C#Cc1cccc(Nc2nc3ccc([N+](=O)[O-])cc3nc2Nc2cccc(C#C)c2)c1", "active"),
    ("CCC1CCc2nc3sc(C(=O)Nc4ccccc4C)c(N)c3cc2C1 (stereo unspecified)", "inactive"),
    ("CCC(C(=O)[O-])C(=O)[O-].CCC(C(=O)[O-])C(=O)[O-].N.N.NCCCCCCN.[Pt+4].[Pt+4]", "inactive"),
    ("Nc1nnc(Cn2c(-c3ccccc3)nc3ccc(Br)cc3c2=O)s1", "inactive"),
    ("Cc1nc2n(c(=O)c1CCN1CCC(c3noc4cc(F)ccc34)CC1)CCCC2", "inactive"),
    ("O=C(O)CCCOc1cc(-c2ccccc2F)nc2cc3c(cc12)OCO3", "inactive"),
]

---

- Test system: HCC-2998 colon
- Assay: NCI tumour cell line growth inhibition, 48 h
We begin with a simple list: items and their reported GI50.

# Compound, GI50
data = [
    ("O=C(c1ccccc1)c1nc2ccc(C(F)(F)F)cc2[n+]([O-])c1C(F)(F)F", "30.1 µM"),
    ("Cc1cc(C)nc(SC2=C(Nc3cccc(Cl)c3C)C(=O)N(Cc3ccccc3)C2=O)n1", "> 160 µM"),
    ("CCC(C(=O)[O-])C(=O)[O-].CCC(C(=O)[O-])C(=O)[O-].N.N.NCCCCCCN.[Pt+4].[Pt+4]", "8.29 µM"),
    ("O=C1CCc2c(sc3[nH]c(=S)n(Cc4ccccc4)c(=O)c23)C1", "2.88 µM"),
    ("CCC1CCc2nc3sc(C(=O)Nc4ccccc4C)c(N)c3cc2C1 (stereo not given)", "4.42 µM"),
    ("CC(=O)[O][Hg][c]1ccccc1", "1.64 µM"),
    ("CC(=O)[O-].O=C([CH-]C(=O)c1ccccc1)c1ccccc1.O=C([CH-]C(=O)c1ccccc1)c1ccccc1.[Y+3]", "5.72 µM"),
    ("O=[N+]([O-])c1ccc2ncccc2c1Cl", "3.67 µM"),
    ("COc1ccc(-c2cc(-c3cc(OC)c(OC)c(OC)c3)c(C#N)c(N3CCOCC3)n2)cc1O", "29.2 µM"),
    ("Cc1nc(N)sc1C(=O)Nc1cc(C(=O)NCCCN(C)C)n(C)c1", "> 100 µM"),
]

---

- System: HCC-2998 colon
- Assay: NCI tumour cell line growth inhibition, 48 h
Endpoint name: log10(TGI) (log10 of the value in µM)

# Compound, Tgt, log10(TGI)
measured = [
    ("CN(CCCNC(=O)c1nn(-c2ccc(Cl)cc2Cl)c2c1ccc1ccccc12)CCCNC(=O)c1nn(-c2ccc(Cl)cc2Cl)c2c1ccc1ccccc12", "HCC-2998 colon", 0.46),
    ("COc1cc([C@@H]2c3cc4c(cc3[C@@H](NC(=O)c3cccc(F)c3)C3COC(=O)[C@@H]32)OCO4)cc(OC)c1O (stereo not given in full)", "HCC-2998 colon", 1.05),
    ("CCOC(=O)c1cc2c(n1Cc1ccccc1)-c1oncc1CC2", "HCC-2998 colon", 1.57),
    ("CC1=C[S+](c2ccccc2)c2cccc3cc4ccccc4c1c23 (stereo not given)", "HCC-2998 colon", 0.20),
    ("O=C1CCc2c(sc3[nH]c(=S)n(Cc4ccccc4)c(=O)c23)C1", "HCC-2998 colon", 1.15),
    ("CCc1nc(Cl)nc(Cl)c1Cl", "HCC-2998 colon", 0.35),
    ("COc1cc(O)c2c(=O)cc(C3(O)C=CC(=O)C=C3)oc2c1", "HCC-2998 colon", 0.05),
    ("O=[N+]([O-])c1ccc(Sc2c3ccccc3nc3ccccc23)nc1", "HCC-2998 colon", 1.51),
    ("CCCCCCCC(=O)SCC/C=C/[C@@H]1CC(=O)NCc2nc(co2)C2=N[C@@](C)(CS2)C(=O)N[C@@H](C(C)C)C(=O)O1", "HCC-2998 colon", -0.67),
    ("COc1c(O)c2c(=O)cc(OC)c3c4c(OC)cc(=O)c5c(O)c(OC)c6c(c(c1C(C(C)=O)C6C(C)O)c23)c54 (stereo not given)", "HCC-2998 colon", 0.03),
]

---

We begin with a simple list: items and their reported TGI.
- Tested on: SNB-19 CNS
- Assay: NCI tumour cell line growth inhibition, 48 h

# Molecule, Tgt, TGI
rows = [
    ("Cc1ccc(S(=O)(=O)Oc2nc3ccccc3nc2N(S(=O)(=O)c2ccc(C)cc2)S(=O)(=O)c2ccc(C)cc2)cc1", "SNB-19 CNS", "> 100 µM"),
    ("COc1cc2c(cc1O)[C@@H]1Cc3c(cc(OC)c(OC)c3Oc3cc4c(cc3OC)CCN(C)[C@@H]4Cc3ccc(O)cc3)[C@H](C2)N1C", "SNB-19 CNS", "> 100 µM"),
    ("O=C(O)C12CCCC(CCC1)C2", "SNB-19 CNS", "> 100 µM"),
    ("O=C1/C(=C/c2ccc(Cl)cc2)N=C(c2ccccc2)N1c1ccc(S(=O)(=O)Nc2nccs2)cc1", "SNB-19 CNS", "> 100 µM"),
    ("O=[N+]([O-])/C(C(Cl)=C(Cl)Cl)=C(/Sc1ccccc1)N1CCCCC1", "SNB-19 CNS", "> 100 µM"),
    ("C/C(Cc1ccc(Cl)cc1)=C(/c1ccc(Cl)cc1)c1ccc(OCCN(C)C)cc1", "SNB-19 CNS", "9.62 µM"),
    ("O=C(O)c1oc(C(=O)O)c(C(=O)O)c1C(=O)O", "SNB-19 CNS", "> 100 µM"),
    ("N#Cc1ccc(C(c2ccc(C#N)cc2)n2cncn2)cc1", "SNB-19 CNS", "> 5000 µM"),
    ("Cc1cc(C)nc(SC2=C(Nc3cccc(Cl)c3C)C(=O)N(Cc3ccccc3)C2=O)n1", "SNB-19 CNS", "> 160 µM"),
    ("Cc1ccc(/C=C/C(=N/NC(=O)N/N=C(/C=C/c2ccc(C)cc2)C(C)(C)CN2CCCCC2)C(C)(C)CN2CCCCC2)cc1", "SNB-19 CNS", "4.4 µM"),
    ("O=C1C2c3[nH]c4ccccc4c3[C@@H]3CCCCC3C2C(=O)N1c1ccccc1 (stereo not given in full)", "SNB-19 CNS", "> 100 µM"),
    ("COc1c(O)c2c(=O)cc(OC)c3c4c(OC)cc(=O)c5c(O)c(OC)c6c(c(c1C(C(C)=O)C6C(C)O)c23)c54 (stereo not given)", "SNB-19 CNS", "0.413 µM"),
    ("CCC[CH2][Sn]([CH2]CCC)([O]C(=O)C1CCC(=O)N1)[O]C(=O)C1CCC(=O)N1 (stereo not given)", "SNB-19 CNS", "0.909 µM"),
    ("O=C1NC(N2CCCC(CO)C2)=N/C1=C\\c1ccc(Cl)cc1 (stereo not given)", "SNB-19 CNS", "> 100 µM"),
    ("COc1ccc(C(=O)COc2cccc(/C=C3\\CSc4ccc(C)cc4C3=O)c2)cc1", "SNB-19 CNS", "> 100 µM"),
    ("O=C(OCc1ccc2c(Cl)cc(Cl)c(O)c2n1)c1cc2ccccc2[nH]1", "SNB-19 CNS", "2.99 µM"),
    ("COC(=O)c1ccccc1/C=C1\\Cc2cc(C)c(C)cc2C1=O", "SNB-19 CNS", "> 100 µM"),
    ("NC(=O)NC(=O)c1cccc(NC(=O)CBr)c1", "SNB-19 CNS", "13.1 µM"),
    ("S=c1sc2nc(Cl)nc(Cl)c2s1", "SNB-19 CNS", "34.8 µM"),
    ("COc1cc2c(cc1OC)C(=O)C(C1=C(SC(=N)N)C(=O)c3cc(OC)c(OC)cc31)C2 (stereo not given)", "SNB-19 CNS", "> 100 µM"),
    ("COc1cc([C@@H]2c3cc4c(cc3[C@@H](NC(=O)c3cccc(F)c3)C3COC(=O)[C@@H]32)OCO4)cc(OC)c1O (stereo not given in full)", "SNB-19 CNS", "14.2 µM"),
    ("COc1ccc(-c2csc(-c3cc(Cl)cc(Cl)c3Cl)n2)cc1", "SNB-19 CNS", "> 100 µM"),
    ("CNC1C(O)C(OC2C(N)CC(N)C(OC3OC(C(C)O)C(O)C(O)C3N)C2O)OCC1(C)O (stereo not given)", "SNB-19 CNS", "> 100 µM"),
    ("COc1cc2c(cc1OC)C(N)CC2=O (stereo not given)", "SNB-19 CNS", "> 100 µM"),
    ("Cc1nc(Nc2ccc([N+](=O)[O-])cc2)sc1C(/C=C/c1ccc(N(C)C)cc1)=N/NC(=O)c1ccccc1", "SNB-19 CNS", "> 100 µM"),
]
